System: Plasmodium falciparum
measurement.notes: GSK_TCMDC: Inhibition of Plasmodium falciparum 3D7 in whole erythrocytes, using parasite LDH activity as an index of growth.
Format: functional, organism-based
measurement.parameters: Plasmodium falciparum, 3D7
The label is TRUE for XC50 below 900 nM and FALSE for XC50 equal to or exceeding 900 nM.

compound=Cc1cccc(Nc2nc(N[C@@H]3CCCNC3)nc3cc[nH]c(=O)c23)c1 assigned_category=TRUE
compound=COc1ccc(Nc2ncc3c(-c4cccc(NC(=O)Cc5ccncc5)c4)c[nH]c3n2)cc1OC assigned_category=FALSE
compound="COc1ccc(OC)c(-c2ccc(O)c(CNCC(C)c3ccccc3)c2)c1 (stereo not given)" assigned_category=FALSE
compound="COc1ccc(S(=O)(=O)NCC2CCCN(CCCCCNC(=O)/C=C/c3ccc(Cl)c(Cl)c3)C2)cc1 (stereo not given)" assigned_category=FALSE
compound=Fc1cccc(C=NNc2ccnc3cc(Cl)ccc23)c1 assigned_category=TRUE
compound=CCc1nnc2sc(-c3cccc(NC(=O)c4ccc(OC)c(Cl)c4)c3)nn12 assigned_category=FALSE
compound="O=C(Nc1ccc(OC2CCN(Cc3ccc(F)cc3)C2)c(Cl)c1)c1ccoc1 (stereo not given)" assigned_category=FALSE
compound="CCOC(=O)c1sc(C(C)Nc2ccccc2)nc1-c1ccccc1 (stereo not given)" assigned_category=TRUE
compound="COc1ccc(NC(=O)C2c3ccccc3C(=O)N(C3CCCC3)C2c2cccs2)cc1 (stereo not given)" assigned_category=FALSE

====

Test system: Plasmodium falciparum
measurement.notes: GSK_TCMDC: Inhibition of Plasmodium falciparum 3D7 in whole erythrocytes, using parasite LDH activity as an index of growth.
Format: functional, organism-based
measurement.parameters: Plasmodium falciparum, 3D7
Counter-ions that a name gives are not always drawn.
measurement.name: XC50 (nM)

compound=CCCCn1c(Sc2ccc(C#N)c([N+](=O)[O-])c2)nnc1-c1cccc(Cl)c1 observed_result=762
compound=COc1ccc(/C=C/C(=O)NCCCCCN2CCC(c3c[nH]c4ccccc34)CC2)cc1O observed_result=957
compound=CC(=O)c1ccc(NC(=O)Nc2ccc3nccc(N4CCN(C)CC4)c3c2)cc1 observed_result=432
compound=COc1ccc(NC(=O)[C@H](CC(C)C)Nc2cc(C)nc(NCc3ccccc3C)n2)cc1 observed_result=888
compound="COc1ccccc1/C=C/C(=O)N(C)C1CCN(CCCCCNC(=O)/C=C/c2ccc(Cl)c(Cl)c2)C1 (centres undefined)" observed_result=867
compound=COc1cccc(C(=O)Nc2ccc(Nc3nc(C)cc(N(C)C)n3)cc2)c1OC observed_result=1020
compound=O=c1cc(NCCCNCc2ccc(C(F)(F)F)c(F)c2)[nH]c2ccccc12 observed_result=1190
compound="CC1CN(c2nc(NCCc3ccc(O)cc3)nc(NCc3ccccc3-c3ccc(C(F)(F)F)cc3)n2)CC(C)N1 (centres undefined)" observed_result=529
compound="CC(Cc1ccc(CN(CC(N)=O)Cc2ccc(CC(C)NCCc3cccc(Cl)c3)cc2)cc1)NCCc1cccc(Cl)c1 (centres undefined)" observed_result=665
compound=Nc1nc(-c2ccc3c(Nc4ccc(F)c(Cl)c4)ccnc3c2)cs1 observed_result=868
compound=COc1ccc(S(=O)(=O)Nc2ccc(C(=O)NCc3ccccc3C(F)(F)F)cc2)cc1N1CCN(CC2CC2)CC1 observed_result=1150
compound=CN(C)CCNC(=O)c1cc2c(-c3ccc(Cl)cc3)nn(C)c2s1 observed_result=665
compound="CN(c1ccc(NC(=O)c2ccc(F)cc2)cc1)C1CCN(Cc2cccc(F)c2)C1 (centres undefined)" observed_result=1410
compound=CCCCNCc1ccc(OCc2cccc(COc3ccc(CNCCCC)cc3)c2)cc1 observed_result=318
compound="C=C[C@H]1CN2CC[C@H]1C[C@H]2[C@H](O)c1ccnc2ccc(OC)cc12 [QUININE HYDROCHLORIDE]" observed_result=145
compound=Cc1nc(Nc2ccc(C)c(Cl)c2)c2c(C)noc2n1 observed_result=886
compound=Cc1ccc2c(=O)cc(CCc3cccc(F)c3F)n(CC(=O)N(Cc3ccc(-c4ccc(C(F)(F)F)cc4)cc3)C3CCN(C(C)C)CC3)c2n1 observed_result=776
compound=O=C(NCC1CC1)C1CCN(C(c2ccc(Cl)cc2)c2ccc(Cl)cc2)CC1 observed_result=190
compound=Nc1nc2c(c(=O)[nH]1)CN(S(=O)(=O)c1ccc(C(=O)N[C@@H](CCC(=O)O)C(=O)O)cc1)CC2 observed_result=146

These entries and their values trace back to ChEMBL document CHEMBL1157539.
